Readout Type: melting point

Worked cases, melting point given:
> print(dat)
                                   compound   readout.type       reported
1  CCOC(=O)N1[C@@H](C(=O)N[C@@H](Cc2ccc(NC(=O)c3c(Cl)cccc3Cl)cc2)C(=O)OC)C[C@@H]1C(=O)OC  melting point    97 to 99 °C
2  CN(CCc1ccccn1)C(=O)N1CSC[C@@H]1C(=O)N[C@@H](Cc1ccc(OCc2c(Cl)cccc2Cl)cc1)C(=O)O (relative stereo)  melting point          80 °C
3  CCOC(=O)N1CSC[C@@H]1C(=O)N[C@@H](Cc1ccc(NC(=O)c2c(Cl)cccc2Cl)cc1)C(=O)O (relative stereo)  melting point  118 to 121 °C

Query :: Please report melting point for the following compound: COC(=O)[C@H](Cc1ccc(NC(=O)c2c(Cl)cccc2Cl)cc1)NC(=O)[C@@H]1CCN1
Result :: 113 to 115 °C

Query :: // fetch melting point given entry COC(=O)[C@H](Cc1ccc(NC(=O)c2c(Cl)cccc2Cl)cc1)NC(=O)[C@H]1CSCN1C(=O)N(C)CCc1ccccn1
Result :: 80 to 90 °C (dec.)

* * *

Target: α4β1 integrin (Jurkat T-cell adhesion to IL-1 stimulated endothelial cell monolayers) (Homo sapiens, UniProt P05556+P13612)
Construct: a T-cell line, Jurkat, known to express the α4β1 integrin; host or cells: Jurkat T-cell line
Sequence (P13612 34-1032): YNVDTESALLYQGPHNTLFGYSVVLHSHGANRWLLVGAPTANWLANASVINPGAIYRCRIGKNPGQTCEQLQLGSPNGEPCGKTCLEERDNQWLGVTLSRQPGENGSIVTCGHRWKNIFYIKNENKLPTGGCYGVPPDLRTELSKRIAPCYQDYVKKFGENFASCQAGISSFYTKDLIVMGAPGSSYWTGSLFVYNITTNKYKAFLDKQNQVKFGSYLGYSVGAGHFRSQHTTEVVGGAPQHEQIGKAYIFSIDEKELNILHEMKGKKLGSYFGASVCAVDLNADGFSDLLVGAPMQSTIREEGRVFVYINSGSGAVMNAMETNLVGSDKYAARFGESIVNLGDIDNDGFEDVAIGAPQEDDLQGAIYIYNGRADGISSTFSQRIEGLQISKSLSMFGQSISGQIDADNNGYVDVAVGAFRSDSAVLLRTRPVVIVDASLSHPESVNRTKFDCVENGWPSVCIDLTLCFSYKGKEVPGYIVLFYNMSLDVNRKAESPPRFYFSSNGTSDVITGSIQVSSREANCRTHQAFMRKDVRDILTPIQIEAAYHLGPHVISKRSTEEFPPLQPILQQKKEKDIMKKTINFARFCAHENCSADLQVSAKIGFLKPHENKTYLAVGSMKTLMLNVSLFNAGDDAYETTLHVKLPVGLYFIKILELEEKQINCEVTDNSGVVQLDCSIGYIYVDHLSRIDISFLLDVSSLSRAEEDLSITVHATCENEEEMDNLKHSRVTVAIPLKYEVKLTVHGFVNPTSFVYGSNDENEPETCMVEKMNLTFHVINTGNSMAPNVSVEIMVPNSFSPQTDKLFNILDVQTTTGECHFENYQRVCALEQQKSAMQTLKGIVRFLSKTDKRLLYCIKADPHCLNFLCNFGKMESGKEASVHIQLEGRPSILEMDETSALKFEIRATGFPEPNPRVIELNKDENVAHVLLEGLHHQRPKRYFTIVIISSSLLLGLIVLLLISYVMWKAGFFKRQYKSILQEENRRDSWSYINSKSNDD
Sequence (P05556 21-798): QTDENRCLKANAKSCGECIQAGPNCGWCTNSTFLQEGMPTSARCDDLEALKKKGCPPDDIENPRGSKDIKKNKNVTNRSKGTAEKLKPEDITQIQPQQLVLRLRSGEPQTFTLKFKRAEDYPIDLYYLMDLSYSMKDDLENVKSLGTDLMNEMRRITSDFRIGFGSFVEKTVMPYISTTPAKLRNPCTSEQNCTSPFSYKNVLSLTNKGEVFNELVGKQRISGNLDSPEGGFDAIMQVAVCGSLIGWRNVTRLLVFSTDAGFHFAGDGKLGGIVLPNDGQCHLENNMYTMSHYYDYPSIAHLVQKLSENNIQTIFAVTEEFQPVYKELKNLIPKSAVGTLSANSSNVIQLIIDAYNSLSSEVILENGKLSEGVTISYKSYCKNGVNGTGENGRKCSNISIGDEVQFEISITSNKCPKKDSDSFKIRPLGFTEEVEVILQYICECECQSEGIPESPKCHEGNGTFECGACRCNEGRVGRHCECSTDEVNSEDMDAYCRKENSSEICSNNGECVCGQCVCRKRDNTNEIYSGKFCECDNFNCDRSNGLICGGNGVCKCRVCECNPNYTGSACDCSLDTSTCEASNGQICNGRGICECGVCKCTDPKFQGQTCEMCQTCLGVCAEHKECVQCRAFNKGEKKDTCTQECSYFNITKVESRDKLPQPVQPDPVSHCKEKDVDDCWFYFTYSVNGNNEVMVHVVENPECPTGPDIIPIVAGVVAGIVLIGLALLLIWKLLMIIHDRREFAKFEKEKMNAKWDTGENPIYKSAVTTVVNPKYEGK
Assay: Jurkat-endothelial cell adhesion assay (Jurkat EC)
Type: cell-based
Settings: Jurkat cells on IL-1 stimulated human umbilical vein endothelial cells; read-out: JK/EC (Jurkat EC Assay IC50 value range)
Readout Type: IC50

Query :: Supply IC50 value. Item: O=C(O)CCC(=O)N1CCC[C@H]1C(=O)N[C@@H](Cc1ccc(NC(=O)c2c(Cl)cccc2Cl)cc1)C(=O)O [Example 224]
Result :: ≥ 1000 nM

* * *

Target: α4β1 integrin (Jurkat cell adhesion to immobilized CS-1 derived peptide CLHPGEILDVPST) (Homo sapiens, UniProt P05556+P13612)
Construct: 100 μl of Jurkat cells (2.5×10^6 cells/ml) in DMEM plus BSA
Sequence (P13612 34-1032): as the sequence (P13612 34-1032) above
Sequence (P05556 21-798): as the sequence (P05556 21-798) above
Test: Jurkat-CS-1 assay
Details: Jurkat cells on CS-1 peptide coated plates; read-out: JK/CS-1 (Jurkat CS-1 Assay IC50 value range)
Source text: The CS-1 derived peptide, CLHPGEILDVPST, and the scrambled control peptide, CLHGPIELVSDPT, were synthesized on a Beckman 990 synthesizer using t-Boc methodology. The peptides were immobilized onto microtiter plates using the heterobifunctional crosslinker 3-(2-pyridyldithio)propionic acid N-hydroxysuccinimide ester (SPDP) as reported by Pierschbacher et al., Proc. Natl. Acad. USA, 80:1224-1227 (1983). […]
Structures can show the parent of a compound that is named as a salt.
Readout Type: IC50

Previously resolved entries follow.
> print(dat)
                                   compound      reported
1  CC(C)(C)OC(=O)N1CSCC1C(=O)NC(Cc1ccc(OCc2c(Cl)cccc2Cl)cn1)C(=O)O (centres unmarked)  50 to 750 nM
2  O=C(Nc1ccc(C[C@H](NC(=O)[C@H]2CSCN2)C(=O)O)cc1)c1c(Cl)cccc1Cl [Example 11, Monohydrochloride Salt]  50 to 750 nM
3  O=C(O)CCC(=O)N1CCCCC1C(=O)N[C@@H](Cc1ccc(NC(=O)c2c(Cl)cccc2Cl)cc1)C(=O)O (some centres unmarked)  50 to 750 nM
4  COC(=O)[C@H](Cc1ccc(OCc2c(Cl)cccc2Cl)cc1)NC(=O)[C@H]1CSCN1C(C)=O  50 to 750 nM
5  CC(C)(C)OC(=O)N1[C@@H](C(=O)N[C@@H](Cc2ccc(NC(=O)c3c(Cl)cccc3Cl)cc2)C(=O)O)CSC1(C)C (relative stereo)  50 to 750 nM

Query :: Answer with the recorded IC50 for the compound listed here: COC(=O)[C@H](Cc1ccc(NC(=O)c2c(Cl)cccc2Cl)cc1)NC(=O)[C@H]1N(C(=O)OC(C)(C)C)CSC1(C)C (relative stereo)
Result :: ≥ 750 nM

Query :: Find the measured IC50 of O=C(O)[C@H](Cc1ccc(OCc2c(Cl)cccc2Cl)cc1)NC(=O)[C@H]1CSCN1C(=O)OCCN1CCOCC1 (relative stereo) and report it.
Result :: ≤ 50 nM

Query :: Report IC50 for O=C(Nc1ccc(C[C@H](NC(=O)[C@H]2CSCN2C(=O)N(CCO)CCO)C(=O)O)cc1)c1c(Cl)cccc1Cl
Result :: ≤ 50 nM

Query :: Write down IC50 measured for item COC(=O)[C@@H](Cc1ccc(NC(=O)c2c(Cl)cccc2Cl)cc1)NC(=O)[C@H]1CSCN1C(=O)OC(C)(C)C (stereo in doubt)
Result :: ≥ 750 nM

Query :: Report IC50, nothing else, for this compound: O=C(O)/C=C\C(=O)N1CCC[C@H]1C(=O)N[C@@H](Cc1ccc(NC(=O)c2c(Cl)cccc2Cl)cc1)C(=O)O
Result :: 50 to 750 nM

Query :: Report IC50 for COCCC(=O)N1CCCC[C@@H]1C(=O)N[C@@H](Cc1ccc(NC(=O)c2c(Cl)cccc2Cl)cc1)C(=O)O
Result :: 50 to 750 nM

Query :: Give a short answer stating reported IC50 for O=C(O)/C=C/C(=O)N1CCC[C@H]1C(=O)N[C@@H](Cc1ccc(NC(=O)c2c(Cl)cccc2Cl)cc1)C(=O)O .
Result :: 50 to 750 nM

Query :: Answer with reported IC50 of CCOC(=O)N1CSC[C@@H]1C(=O)N[C@@H](Cc1ccc(NC(=O)c2c(Cl)cccc2Cl)cc1)C(=O)OCc1ccncc1
Result :: ≤ 50 nM

Query :: Please give measured IC50 of the following entry: CC(C)(C)OC(=O)N1CSC[C@H]1C(=O)N[C@@H](Cc1ccc(NC(=O)c2c(Cl)cccc2Cl)cc1)C(=O)O (stereo in doubt)
Result :: 50 to 750 nM

Origin of values: patent US6685617B1
